target: recombinant human Meningioma Expressed Antigen 5 (MGEA5), also referred to as O-GlcNAcase (OGA) (Homo sapiens, UniProt O60502); construct: Full length OGA enzyme was purchased at OriGene (cat #TP322411); purchased OriGene TP322411; experiment: OGA biochemical assay (inhibition of FM-GlcNAc hydrolysis, fluorescence); conditions: FM-GlcNAc substrate, 6 h at room temperature, read-out: Enzymatic hOGA, pIC50 (converted)
READOUT LABEL: IC50 (µM)
State the answer as a number, implicitly in µM.

Use the examples below as a reference point.
>>> readout_number("Cc1cc(C2CCCN(C(C)c3ccc4sc(C)nc4n3)C2)c(F)c(C)n1 (single isomer, unassigned) [Compound 77]")
2.51
>>> readout_number("COc1cc(C[C@H]2CCCN([C@@H](C)c3ccc4oc(C)nc4n3)C2)cc(C)n1 (relative stereo) [Compound 23b]")
0.2

query: Look up IC50 for this molecule: Cc1cc([C@H]2CCCN([C@H](C)c3nc4nc(C)sc4cc3F)C2)cc(C)n1 (single isomer, unassigned)
result: 1.58

query: Now the same for Cc1cc(NCC2CCCN(C(C)c3ccc4sc(C)nc4n3)C2)cc(C)n1 (single isomer, unassigned) [Compound 106]
result: 0.00501

query: Now the same for COc1cc(C[C@H]2CCCN([C@H](C)c3ccc4oc(C)nc4n3)C2)cc(C)n1 (relative stereo) [Compound 23a]
result: 0.00794

----------
biological target: recombinant human Meningioma Expressed Antigen 5 (MGEA5), also referred to as O-GlcNAcase (OGA) (Homo sapiens, UniProt O60502); construct: Full length OGA enzyme was purchased at OriGene (cat #TP322411); purchased OriGene TP322411; experiment: OGA biochemical assay (inhibition of FM-GlcNAc hydrolysis, fluorescence); details: FM-GlcNAc substrate, maximal effect, read-out: Enzymatic Emax (%)
READOUT LABEL: Emax (%)
State the answer as a number, implicitly in %.

Use the examples below as a reference point.
>>> readout_number("Cc1cc(OC[C@@H]2CCCN(C(C)c3cc4nc(C)oc4cc3F)C2)cc(C)n1 (mixture of isomers) [Compound 35]")
101
>>> readout_number("Cc1cc(C[C@H]2CCCN(C(C)c3ccc4cn(C)nc4n3)C2)cc(C)n1 (mixture of isomers) [Compound 12ab]")
100
>>> readout_number("Cc1cc(C[C@H]2CCCN(Cc3cnc4nc(C)oc4c3)C2)cc(C)n1 [Compound 37]")
55

Shifting focus to the molecule that follows.
query: Look up Emax for this molecule: Cc1cc([C@H]2CCCN([C@@H](C)c3ccc4sc(C)nc4n3)C2)cc(C)n1 (racemic) [Compound 76]
result: 98

----------
Quick list: Emax per entry.
biological target: OGA (Homo sapiens); construct: HEK293 cells inducible for P301L mutant human Tau (isoform 2N4R) were established at Janssen; endogenous in cells; host or cells: HEK293 cells inducible for P301L mutant human Tau (2N4R); assay: OGA cellular assay (ICC detection of O-GlcNAcylated proteins in HEK293 cells inducible for P301L mutant human Tau); assay type: cell-based; details: HEK293, HEK293 cells inducible for P301L mutant human Tau, maximum = Thiamet G 200 uM
State the answer as a number, implicitly in %.

Use the examples below as a reference point.
>>> readout_number("Cc1cc(CO[C@H]2CCCN(C(C)c3ccc4sc(C)nc4n3)C2)cc(C)n1 (single isomer, unassigned) [Compound 67]")
5
>>> readout_number("Cc1cc(C[C@H]2CCCN(C(C)c3ccc4oc(C)nc4n3)C2)cc(C)n1 (mixture of isomers) [Compound 22]")
91
>>> readout_number("Cc1cc(O[C@@H]2CCN(C(C)c3nc4nc(C)sc4cc3F)C2)cc(C)n1 (stereo partly shown) [Compound 92]")
28

query: Look up Emax for this molecule: Cc1cc(OC[C@H]2CCN(C(C)c3ccc4sc(C)nc4n3)C2)cc(C)n1 (mixture of isomers) [Compound 48]
result: 16

----------
Target: OGA (Homo sapiens)
Construct: HEK293 cells inducible for P301L mutant human Tau (isoform 2N4R) were established at Janssen; endogenous in cells; host or cells: HEK293 cells inducible for P301L mutant human Tau (2N4R)
Sequence (O60502 1-916): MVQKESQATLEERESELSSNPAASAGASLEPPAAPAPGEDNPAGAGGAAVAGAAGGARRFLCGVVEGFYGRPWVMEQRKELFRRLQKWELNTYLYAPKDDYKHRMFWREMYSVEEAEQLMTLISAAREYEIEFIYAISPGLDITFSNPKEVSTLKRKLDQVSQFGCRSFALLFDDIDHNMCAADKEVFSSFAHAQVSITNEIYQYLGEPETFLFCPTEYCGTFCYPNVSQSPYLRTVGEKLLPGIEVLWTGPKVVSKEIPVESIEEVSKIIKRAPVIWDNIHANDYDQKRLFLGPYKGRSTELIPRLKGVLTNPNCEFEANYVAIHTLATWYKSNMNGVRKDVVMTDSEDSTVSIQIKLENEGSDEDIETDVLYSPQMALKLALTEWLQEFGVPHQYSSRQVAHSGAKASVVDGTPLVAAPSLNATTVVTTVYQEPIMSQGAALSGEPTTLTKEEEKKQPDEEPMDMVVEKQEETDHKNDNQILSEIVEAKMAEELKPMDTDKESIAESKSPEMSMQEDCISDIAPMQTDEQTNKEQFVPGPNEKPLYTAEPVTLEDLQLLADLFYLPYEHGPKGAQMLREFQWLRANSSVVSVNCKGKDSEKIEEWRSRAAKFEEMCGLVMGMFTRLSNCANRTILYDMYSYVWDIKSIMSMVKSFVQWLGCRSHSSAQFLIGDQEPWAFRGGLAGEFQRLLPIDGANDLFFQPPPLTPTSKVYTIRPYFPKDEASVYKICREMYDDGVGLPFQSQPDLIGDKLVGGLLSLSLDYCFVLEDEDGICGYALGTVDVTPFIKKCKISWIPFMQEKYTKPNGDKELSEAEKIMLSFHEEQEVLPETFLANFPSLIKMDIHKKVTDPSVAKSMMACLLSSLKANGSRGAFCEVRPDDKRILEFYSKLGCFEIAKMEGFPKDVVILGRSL
Assay: OGA cellular assay (ICC detection of O-GlcNAcylated proteins in HEK293 cells inducible for P301L mutant human Tau)
Assay type: cell-based
Settings: HEK293, HEK293 cells inducible for P301L mutant human Tau, maximum = Thiamet G 200 uM
READOUT LABEL: Emax (%)
State the answer as a number, implicitly in %.

>>> readout_number("Cc1cc(C[C@H]2CCCN(C(C)c3ccc4oc(C)nc4n3)C2)cc(C(F)(F)F)n1 (mixture of isomers) [Compound 24ab]")
91

query: Look up Emax for this compound: Cc1cc(C[C@H]2CCCN(C(C)c3cnc4c(c3)nc(C)n4C)C2)cc(C)n1 (mixture of isomers)
result: 64

query: Now the same for Cc1cc(C[C@H]2CCCN(Cc3cnc4nc(C)oc4c3)C2)cc(C)n1
result: 2

query: Now the same for Cc1cc(CO[C@@H]2CCCN(C(C)c3ccc4sc(C)nc4n3)C2)cc(C)n1 (single isomer, unassigned) [Compound 69]
result: -6

query: Now the same for Cc1cc([C@H]2CCCN([C@@H](C)c3ccc4sc(C)nc4n3)C2)cc(C)n1 (racemic)
result: 67

query: Now the same for COc1cc(C[C@H]2CCCN([C@H](C)c3ccc4oc(C)nc4n3)C2)cc(C)n1 (relative stereo) [Compound 23a]
result: 79

----------
Quick list: EC50 per entry.
target: OGA (Homo sapiens); construct: HEK293 cells inducible for P301L mutant human Tau (isoform 2N4R) were established at Janssen; endogenous in cells; host or cells: HEK293 cells inducible for P301L mutant human Tau (2N4R); assay: OGA cellular assay (ICC detection of O-GlcNAcylated proteins in HEK293 cells inducible for P301L mutant human Tau); type: cell-based; settings: HEK293 cells inducible for P301L mutant human Tau, 6 hours incubation; read-out: Cellular hOGA; pEC50 (converted)
State the answer as a number, implicitly in nM.

Use the examples below as a reference point.
>>> readout_number("Cc1cc(C[C@H]2CCCN(C(C)c3ccc4oc(C)nc4n3)C2)cc(C(F)(F)F)n1 (mixture of isomers) [Compound 24ab]")
50.1
>>> readout_number("Cc1cc([C@H]2CCCN([C@H](C)c3ccc4sc(C)nc4n3)C2)nc(C)n1 (racemic) [Compound 70]")
794
>>> readout_number("COc1cc(C[C@H]2CCCN([C@H](C)c3ccc4oc(C)nc4n3)C2)cc(C)n1 (relative stereo) [Compound 23a]")
25.1

query: Look up EC50 for this molecule: Cc1cc(OC[C@H]2CCCN([C@H](C)c3ccc4sc(C)nc4n3)C2)nc(C)n1 [Compound 49b]
result: 31.6

----------
Target: recombinant human Meningioma Expressed Antigen 5 (MGEA5), also referred to as O-GlcNAcase (OGA) (Homo sapiens)
Construct: Full length OGA enzyme was purchased at OriGene (cat #TP322411); purchased OriGene TP322411
Sequence (O60502 1-916): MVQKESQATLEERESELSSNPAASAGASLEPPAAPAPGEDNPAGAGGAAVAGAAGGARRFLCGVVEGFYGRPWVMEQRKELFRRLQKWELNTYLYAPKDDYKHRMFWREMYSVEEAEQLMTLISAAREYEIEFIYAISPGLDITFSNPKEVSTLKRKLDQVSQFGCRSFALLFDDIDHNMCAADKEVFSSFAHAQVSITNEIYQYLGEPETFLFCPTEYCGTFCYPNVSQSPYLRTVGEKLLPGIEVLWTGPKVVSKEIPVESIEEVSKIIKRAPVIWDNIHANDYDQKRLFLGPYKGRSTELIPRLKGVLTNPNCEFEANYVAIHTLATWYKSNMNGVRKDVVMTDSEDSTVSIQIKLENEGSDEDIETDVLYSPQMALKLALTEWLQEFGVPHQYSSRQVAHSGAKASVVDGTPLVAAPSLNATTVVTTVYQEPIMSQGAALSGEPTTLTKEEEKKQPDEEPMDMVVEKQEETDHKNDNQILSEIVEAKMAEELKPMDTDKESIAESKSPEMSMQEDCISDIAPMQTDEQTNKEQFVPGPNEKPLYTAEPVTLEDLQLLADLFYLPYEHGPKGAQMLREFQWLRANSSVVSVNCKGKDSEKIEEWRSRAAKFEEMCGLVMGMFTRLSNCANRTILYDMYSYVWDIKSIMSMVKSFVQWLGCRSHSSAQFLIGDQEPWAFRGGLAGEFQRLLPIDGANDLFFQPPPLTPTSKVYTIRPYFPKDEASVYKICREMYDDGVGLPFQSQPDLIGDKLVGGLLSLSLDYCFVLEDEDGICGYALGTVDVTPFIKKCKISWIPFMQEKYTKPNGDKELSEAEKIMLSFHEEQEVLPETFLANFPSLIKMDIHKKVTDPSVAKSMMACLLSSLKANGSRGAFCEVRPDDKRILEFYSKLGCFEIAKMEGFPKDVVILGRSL
Assay: OGA biochemical assay (inhibition of FM-GlcNAc hydrolysis, fluorescence)
Details: FM-GlcNAc substrate, maximal effect, read-out: Enzymatic Emax (%)
READOUT LABEL: Emax
The reply must contain the numeric value and, after it, the unit.

Use the examples below as a reference point.
>>> result("COc1cc([C@H]2CCCN([C@@H](C)c3cnc4[nH]c(C)nc4c3)C2)cc(C(F)(F)F)n1")
"96%"
>>> result("Cc1cc(C[C@H]2CCCN(C(C)c3ccc4nc(C)sc4c3)C2)cc(C)n1 (mixture of isomers)")
"99%"
>>> result("Cc1cc(O[C@@H]2CCN(C(C)c3nc4nc(C)sc4cc3F)C2)cc(C)n1 (stereo partly shown)")
"99%"
>>> result("Cc1cc(C[C@H]2CCCN(C(C)c3ccc4nc(C)[nH]c4n3)C2)cc(C)n1 (mixture of isomers)")
"99%"
>>> result("Cc1cc(CO[C@H]2CCCN(C(C)c3cc4nc(C)sc4cc3F)C2)cc(C)n1 (single isomer, unassigned) [Compound 100]")
"92%"

query: Look up Emax for this compound: Cc1cc(C[C@H]2CCCN(C(C)c3ccc4oc(C)nc4n3)C2)cc(C(F)(F)F)n1 (mixture of isomers) [Compound 24ab]
result: 103%

query: Now the same for COc1cc(C[C@@H]2CCN(C(C)c3ccc4oc(C)nc4n3)C2)cc(C)n1 (mixture of isomers)
result: 99%
